- SYSTEM UNDER TEST: Calcium-activated potassium channel subunit alpha-1 (Homo sapiens) + Leucine-rich repeat-containing protein 26 (Homo sapiens) (UniProt Q12791+Q2I0M4)
- Sequence (Q2I0M4 whole entry, looked up, one chain of several): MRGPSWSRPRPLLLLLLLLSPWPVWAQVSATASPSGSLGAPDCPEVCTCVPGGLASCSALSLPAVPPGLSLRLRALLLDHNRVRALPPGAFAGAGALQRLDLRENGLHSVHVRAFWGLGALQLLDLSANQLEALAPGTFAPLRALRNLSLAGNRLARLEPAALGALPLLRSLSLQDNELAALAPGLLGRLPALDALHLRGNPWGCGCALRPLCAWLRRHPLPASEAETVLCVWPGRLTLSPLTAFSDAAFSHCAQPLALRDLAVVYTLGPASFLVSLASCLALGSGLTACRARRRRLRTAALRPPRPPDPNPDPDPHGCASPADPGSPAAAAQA
- EXPERIMENT SUMMARY: BK channel mutant inhibitors and activators – cell-based, U2OS BacMam, thallium flux, beta subunits, selectivity assay, profiling panel (AID 1259406);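 further: initial slope of Thallos dye fluorescence rise after thallium is added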
- MEASUREMENT CONDITIONS: U2OS BacMam BK variants, F380Y/Slo1WT/gamma1, at 30 µM
The source made the active and inactive calls.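 How the source made its calls: active means thallium flux through the channel raised or lowered by more than 3 SD from vehicle-only wells, actives on both sides; inactive means the rest.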
Bench note: report the call from T for active, F for inactive

Below, 4 compounds whose answers are already recorded.
Exercise: Recorded test outcome, item "Nc1nc(F)nc2c1ncn2[C@@H]1O[C@H](CO)[C@@H](O)[C@@H]1O"
Solution: F

Exercise: Recorded test outcome, item "Brc1c(NC2=NCCN2)ccc2nccnc12"
Solution: F

Exercise: Recorded test outcome, item "Nc1nc2c(ncn2COC(CO)CO)c(=O)[nH]1"
Solution: F

Exercise: Recorded test outcome, item "CCOc1cc(CC(=O)N[C@@H](CC(C)C)c2ccccc2N2CCCCC2)ccc1C(=O)O"
Solution: F

Next:
Exercise: Recorded test outcome, item CC(Oc1c(Cl)cccc1Cl)C1=NCCN1 (centres undefined)
Solution: F

Exercise: Recorded test outcome, item "CCCc1c(OCCCCc2nn[nH]n2)ccc(C(C)=O)c1O"
Solution: T

Ref: PubChem BioAssay
